# TARGET_OR_TEST_SYSTEM: G12V-mutant human KRAS (amino acid residues 1-188) (Homo sapiens, UniProt P01116, G12V)
# Construct: G12V-mutant human KRAS (amino acid residues 1-188) with FLAG tag was purified from E. coli; made in house; host or cells: E. coli
# METHOD_DESCRIPTION: KRAS Binding Competition Assay (AlphaScreen; biotinylated KRpep-2d analogue), G12V
# EXPERIMENTAL_CONDITIONS: geometric mean, read-out: KRAS GMean IC50 (uM) MUTATION: G12V
Give measured IC50 for each item. Keep answers brief.

**Q:** Tell me IC50 reported for CN1CCC[C@H]1COc1nc(N2C[C@H]3CC[C@@H](C2)N3)c2ccc(-c3cc(O)c(F)c4ccccc34)cc2n1 [P-0385]
**A:** 10 to 100 µM

**Q:** Specify reported IC50 for the compound shown: CCCc1nc(N2C[C@H]3CC[C@@H](C2)N3)c2ccc(-c3cc(O)cc4ccccc34)c(F)c2n1 [P-0455]
**A:** 10 to 100 µM

**Q:** Note IC50 for the compound shown: CN1CCC[C@H]1COc1nc(N2C[C@H]3CC[C@@H](C2)N3C(=O)CC#N)c2ccc(-c3cc(O)cc4ccccc34)cc2n1 [P-0368]
**A:** 0.0001 to 10 µM

**Q:** Specify IC50 for CC(C)(C)c1ccc2[nH]cc(-c3ccc4c(N5C[C@H]6CC[C@@H](C5)N6)nc(OCC56CCCN5CCC6)nc4c3F)c2c1 [P-0611] and stop.
**A:** 100 to 1000 µM

**Q:** Answer with the recorded IC50 of Oc1cc(-c2ccc3c(N4[C@@H]5CC[C@H]4CNC5)nc(Cc4cccnc4)nc3c2)c2ccccc2c1 [P-0240] only.
**A:** 0.0001 to 10 µM

**Q:** Give the measured IC50 for Oc1cc(-c2ccc3c(C4=C[C@@H]5CC[C@H](C4)N5)nc(OCC45CCCN4CCC5)nc3c2)c2ccccc2c1 [P-0054]
**A:** 10 to 100 µM

**Q:** Determine from records and report IC50 for CN1CCC[C@H]1COc1nc(N2C[C@H]3CC[C@@H](C2)N3)c2ccc(-c3c[nH]c4ccc(Cl)cc34)c(F)c2n1 [P-0295]
**A:** 100 to 1000 µM

---

Kindly state IC50 for each of the entries shown.
# TARGET_OR_TEST_SYSTEM: G12V-mutant human KRAS (amino acid residues 1-188) (Homo sapiens, UniProt P01116, G12V)
# Construct: G12V-mutant human KRAS (amino acid residues 1-188) with FLAG tag was purified from E. coli; made in house; host or cells: E. coli
# METHOD_DESCRIPTION: KRAS Binding Competition Assay (AlphaScreen; biotinylated KRpep-2d analogue), G12V
# EXPERIMENTAL_CONDITIONS: geometric mean, read-out: KRAS GMean IC50 (uM) MUTATION: G12V

**Q:** Annotate the molecule O=C(OC1CCOC1)N1[C@@H]2CC[C@H]1CN(c1nc(OCC34CCCN3CCC4)nc3cc(-c4cc(O)cc5ccccc45)ccc13)C2 (stereo partly shown) [P-0098] with its measured IC50.
**A:** 0.0001 to 10 µM

**Q:** Provide IC50 value for the following molecule: CN1CCC[C@H]1COc1nc(N2C[C@H]3CC[C@@H](C2)N3)c2ccc(-c3c(O)cccc3Cl)cc2n1 [P-0342]
**A:** 10 to 100 µM

**Q:** Answer with the recorded IC50 for the molecule listed here: CN1CCC[C@H]1COc1nc(N2C[C@H]3CC[C@@H](C2)N3)c2cc(CO)c(-c3cc(O)cc4ccccc34)c(F)c2n1 [P-0056]
**A:** 0.0001 to 10 µM

**Q:** Fill in IC50 for record Cc1cccc2c1N(c1ccc3c(N4C[C@H]5CC[C@@H](C4)N5)nc(OC[C@@H]4CCCN4C)nc3c1)CC(O)C2 (stereo partly shown) [P-0406]
**A:** 100 to 1000 µM

**Q:** Determine its reported IC50: CN1CCC[C@H]1COc1nc(N2[C@@H]3CC[C@H]2CN(C(=O)Nc2ccn[nH]2)C3)c2ccc(-c3cc(O)cc4ccccc34)cc2n1 [P-0271]
**A:** 0.0001 to 10 µM

**Q:** Identify measured IC50 corresponding to NCC(O)CC(=O)N1[C@@H]2CC[C@H]1CN(c1nc(OCC34CCCN3CCC4)nc3cc(-c4cc(O)cc5ccccc45)ccc13)C2 (stereo partly shown) [P-0100]
**A:** 0.0001 to 10 µM

**Q:** Supply reported IC50 belonging to this molecule: COC(=O)CCC(=O)N1[C@@H]2CC[C@H]1CN(c1nc(OCC34CCCN3CCC4)nc3cc(-c4cc(O)cc5ccccc45)ccc13)C2 [P-0068]
**A:** 0.0001 to 10 µM

**Q:** Tell me IC50 reported for CN1CCC[C@H]1COc1nc(N2[C@@H]3CC[C@H]2CN(CC(=O)Nc2ccccn2)C3)c2ccc(-c3cc(O)cc4ccccc34)cc2n1 [P-0225]
**A:** 10 to 100 µM

**Q:** Provide only the value of recorded IC50 for Oc1cc(-c2ccc3c(N4C[C@H]5CC[C@@H](C4)N5)nc(N4CC(N5CC(O)C5)C4)nc3c2F)c2ccccc2c1 [P-0632]
**A:** 0.0001 to 10 µM

**Q:** Consider the molecule O=C1c2ccccc2C(=O)N1Cc1nc(N2C[C@H]3CC[C@@H](C2)N3)c2cc(Cl)c(-c3c(O)cccc3F)c(F)c2n1 [P-0446] . State its measured IC50.
**A:** 10 to 100 µM

**Q:** Provide IC50 value for the following molecule: CN1CCC[C@H]1COc1nc(N2C[C@H]3CC[C@@H](C2)N3C(=O)Cn2ccnc2)c2ccc(-c3cc(O)cc4ccccc34)c(F)c2n1 [P-0401]
**A:** 0.0001 to 10 µM

**Q:** Find the measured IC50 of CN1CC(=O)N(Cc2nc(N3C[C@H]4CC[C@@H](C3)N4)c3cc(Cl)c(-c4c(O)cccc4F)c(F)c3n2)C1=O [P-0460] and report it.
**A:** 10 to 100 µM

**Q:** Identify IC50 associated with the molecule CCCNS(=O)(=O)N1[C@@H]2CC[C@H]1CN(c1nc(OCC34CCCN3CCC4)nc3cc(-c4cc(O)cc5ccccc45)ccc13)C2 [P-0096]
**A:** 10 to 100 µM

---

# TARGET_OR_TEST_SYSTEM: G12D-mutant human KRAS (amino acid residues 1-188) (Homo sapiens, UniProt P01116, G12D)
# Construct: G12D or G12C-mutant human KRAS (amino acid residues 1-188) with FLAG tag; made in house; host or cells: E. coli
# METHOD_DESCRIPTION: KRAS Binding Disruption Assay (AlphaScreen; biotinylated KRpep-2d analogue or RAF1-RBD), G12D
# EXPERIMENTAL_CONDITIONS: KRAS G12D; geometric mean; read-out: KRAS GMean IC50 (uM) MUTATION: G12D
VALUE_TYPE: IC50

**Q:** Identify measured IC50 corresponding to CN1CCCC1COc1nc(N2C[C@H]3CC[C@@H](C2)N3C(=O)NCC(N)=O)c2ccc(-c3cc(O)cc4ccccc34)c(F)c2n1 (stereo partly drawn)
**A:** 0.0001 to 10 µM

**Q:** State its IC50 for this compound: CN1CCC[C@H]1COc1nc(N2C[C@H]3CC[C@@H](C2)N3CC(=O)N2CCNCC2)c2ccc(-c3cc(O)cc4ccccc34)c(F)c2n1
**A:** 0.0001 to 10 µM

**Q:** Return IC50 for the following compound: CN1CCC[C@H]1COc1nc(N2[C@@H]3CC[C@H]2CN(C(=O)CCC2CCNCC2)C3)c2ccc(-c3cc(O)cc4ccccc34)cc2n1
**A:** 10 to 100 µM

**Q:** Give the measured IC50 for CN1CCN(c2nc(N3C[C@H]4CC[C@@H](C3)N4)c3ccc(-c4cc(O)cc5ccccc45)c(F)c3n2)CC1
**A:** 0.0001 to 10 µM

**Q:** Provide measured IC50 value, entry: CN1CCN(CCCC(=O)N2C3CCC2CN(c2nc(OC[C@@H]4CCCN4C)nc4c(F)c(-c5cc(O)cc6ccccc56)ccc24)CC3)CC1 (stereo partly drawn)
**A:** 10 to 100 µM

**Q:** Give the measured IC50 for Oc1cc(-c2ccc3c(N4C[C@H]5CC[C@@H](C4)N5)nc(CN[C@H]4CCOC4)nc3c2)c2ccccc2c1
**A:** 0.0001 to 10 µM

**Q:** Could you please provide reported IC50 for CC(C)(CO)COc1nc(N2C[C@H]3CC[C@@H](C2)N3)c2ccc(-c3cccc4cccc(Cl)c34)c(F)c2n1 ? Thanks!
**A:** 0.0001 to 10 µM

**Q:** Report measured IC50; entry is C=Cc1cccc2cccc(-c3ccc4c(N5C[C@H]6CC[C@@H](C5)N6)nc(OCC56CCCN5CCC6)nc4c3F)c12
**A:** 0.0001 to 10 µM

**Q:** // Input: CN1CCC[C@H]1COc1nc(N2C[C@H]3CC[C@@H](C2)N3C(=O)Cc2c[nH]cn2)c2ccc(-c3cc(O)cc4ccccc34)cc2n1 . Output its IC50 only.
**A:** 0.0001 to 10 µM

**Q:** Using the record for CC(C)(COc1nc(N2C[C@H]3CC[C@@H](C2)N3)c2ccc(-c3cc(O)cc4ccccc34)c(F)c2n1)NC(=O)OCc1ccccc1 , state its measured IC50.
**A:** 0.0001 to 10 µM

**Q:** Please give measured IC50 of the following entry: CN1CCC[C@H]1COc1nc(N2CC3CC2CN3)c2cc(Cl)c(-c3cc(O)cc4ccccc34)c(F)c2n1 (stereo partly drawn)
**A:** 0.0001 to 10 µM

**Q:** Note IC50 for the compound shown: O=C(OC1CCOC1)N1[C@@H]2CC[C@H]1CN(c1nc(OCC34CCCN3CCC4)nc3cc(-c4cc(O)cc5ccccc45)ccc13)C2 (stereo partly drawn)
**A:** 0.0001 to 10 µM

**Q:** Give the reported value of IC50 for this record: CN1CCC[C@H]1COc1nc(N2C[C@H]3CC[C@@H](C2)N3)c2ccc(-c3c(F)ccc(O)c3F)cc2n1
**A:** 10 to 100 µM

**Q:** Report IC50 for Cc1cccc(N)c1-c1ccc2c(N3C[C@H]4CC[C@@H](C3)N4)nc(OC[C@@H]3CCCN3C)nc2c1
**A:** 10 to 100 µM

**Q:** // Input: OCC(CO)COc1nc(N2C[C@H]3CC[C@@H](C2)N3)c2ccc(-c3cc(O)cc4ccccc34)c(F)c2n1 . Output its IC50 only.
**A:** 0.0001 to 10 µM

**Q:** Give IC50 for the following compound: CS(=O)(=O)NCCN1[C@@H]2CC[C@H]1CN(c1nc(OCC34CCCN3CCC4)nc3c(F)c(-c4cc(O)cc5ccccc45)ccc13)C2
**A:** 0.0001 to 10 µM

**Q:** Input Fc1c(-c2c[nH]c3cccc(C4CC4)c23)ccc2c(N3C[C@H]4CC[C@@H](C3)N4)nc(OCC34CCCN3CCC4)nc12 , output reported IC50.
**A:** 0.0001 to 10 µM

**Q:** Note IC50 for the compound shown: Oc1cc(-c2ccc3c(N4C[C@H]5CC[C@@H](C4)N5)nc(OC[C@@H]4CCCN4CCF)nc3c2)c2ccccc2c1
**A:** 0.0001 to 10 µM

**Q:** Input Oc1cc(-c2ccc3c(N4C[C@H]5CC[C@@H](C4)N5)nc(N4CC(N5CCOCC5)C4)nc3c2F)c2ccccc2c1 , output reported IC50.
**A:** 0.0001 to 10 µM

**Q:** Respond only with IC50 recorded for CN1CCC[C@H]1COc1nc(N2[C@@H]3CC[C@H]2CN(C(=O)[C@H]2CCCN2)C3)c2ccc(-c3cc(O)cc4ccccc34)cc2n1
**A:** 10 to 100 µM

**Q:** Using known records, supply IC50 for Cc1ccc2[nH]ncc2c1-c1c(Cl)cc2c(N3C[C@H]4CC[C@@H](C3)N4)nc(OCC34CCCN3CCC4)nc2c1F
**A:** 0.0001 to 10 µM

**Q:** Assign IC50 to the following record: Cc1ccc(N)cc1-c1ccc2c(N3C[C@H]4CC[C@@H](C3)N4)nc(OC[C@@H]3CCCN3C)nc2c1
**A:** 10 to 100 µM

**Q:** Hello, please tell me recorded IC50 for this one: Oc1cc(-c2ccc3c(N4C[C@H]5CC[C@@H](C4)N5)nc(OCC4(O)CCC4)nc3c2F)c2ccccc2c1
**A:** 0.0001 to 10 µM

**Q:** Please give measured IC50 of the following entry: CN(C)C1(CNc2nc(N3C[C@H]4CC[C@@H](C3)N4)c3ccc(-c4cc(O)cc5ccccc45)c(F)c3n2)CCOCC1
**A:** 0.0001 to 10 µM

**Q:** Query IC50 for OC/C=C/c1nc(N2C[C@H]3CC[C@@H](C2)N3)c2ccc(-c3cc(O)cc4ccccc34)c(F)c2n1
**A:** 0.0001 to 10 µM

**Q:** Supply measured IC50 of O=C([C@@H]1CCNC1)N1[C@@H]2CC[C@H]1CN(c1nc(OCC34CCCN3CCC4)nc3cc(-c4cc(O)cc5ccccc45)ccc13)C2 in your reply.
**A:** 0.0001 to 10 µM

**Q:** Give IC50 for CN1CCC[C@H]1COc1nc(N2C[C@H]3CC[C@@H](C2)N3C(=O)CC2SC(=O)NC2=O)c2cc(Cl)c(-c3cc(O)cc4ccccc34)c(F)c2n1 (stereo partly drawn)
**A:** 0.0001 to 10 µM
